MEASUREMENT_TARGET: Vg9/Vd1 T cell receptor on SKW3 cells (UniProt Q99603)
Sequence (Q99603 21-122): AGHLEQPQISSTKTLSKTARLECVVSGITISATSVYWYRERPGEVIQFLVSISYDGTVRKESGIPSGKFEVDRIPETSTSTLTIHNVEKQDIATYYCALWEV
ASSAY_TEXT: flow cytometry, dose-response binding at 37 C on SKW3 cells expressing Vg9/Vd1
In this section, each of the binders is paired with its reported Max. Activity (fold over background).
// response body must contain only the number

Please review the entries below; each comes with its answer.
BINDER | Max. Activity (fold over background)
VG9B88 (antibody, human IgG1, kappa, V domains shown) VH: EVQLVESGGGLVKPGGSLRLSCAVSGFTFSSYTMNWVRQAPGKGLEWVSSISTSSSYIDYADSVKGRFTISRDNAKKSLYLQMNSLRAEDTAVYYCARDGDMVAPIKGSFDYWGQGTLVTVSS VL: EIVLTQSPLSLPVTPGEPASISCRSSQSLLNSDDGNTYLDWYLQKPGQSPQLLIYTLSYRASGVPDRFSGSGSGTDFTLKISRVEAEDVGVYYCMQRIEFPITFGQGTRLEIKR | 346
VG9B472 (antibody, human IgG1, kappa, V domains shown) VH: QVQLVESGGGLVKPGGSLRLSCAASGFTFSHYDMNWVRQAPGKGLEWVSSISSSSSYIFYADSVKGRFTISRDNAKNSLLLQMNSLRAEDTAVYHCARDRGVGDTSDYYSFGLDVWGQGTTVTVSS VL: EIVLTQSPSSLSASVGDRVTITCRASQGIATYLAWYQQKPGKVPNLLIYAASTLQSGVPSRFSGSGSGTDFTLTISSLQPEDVATYYCQKYNSAPPWTFGQGTKVEIKR | 328

# lookup: Max. Activity (fold over background) of VG9B98 (antibody, human IgG1, kappa, V domains shown) VH: EVQLVQSGGDLVKSGGSLRLSCAASGFTFSSYSMYWVRQAPGKGLEWVSSIGSSSTYIFYADSVKGRFTISRDNAMTSLYLQMNRLGAEDSAVYYCARDGELGPFEYWGQGTLVTVSS VL: EIVLTQSPGTLSLSPGERATLSCRASQSVSTSYLAWFQQKPGQAPRLLIFGTSSRATGIPDRFSGSGSGTDFTLTISRLEPEDFAVYHCLQYGRSPLTFGGGTKVDIKR
344
